TESTED ON: T1, extracellular domain of human CD73 protein, C-terminus polyhistidine-tagged (human, UniProt P21589 27-547)
T1 construct: also the immunogen; also called CD73-ECD; human CD73-ECD
T1 sequence: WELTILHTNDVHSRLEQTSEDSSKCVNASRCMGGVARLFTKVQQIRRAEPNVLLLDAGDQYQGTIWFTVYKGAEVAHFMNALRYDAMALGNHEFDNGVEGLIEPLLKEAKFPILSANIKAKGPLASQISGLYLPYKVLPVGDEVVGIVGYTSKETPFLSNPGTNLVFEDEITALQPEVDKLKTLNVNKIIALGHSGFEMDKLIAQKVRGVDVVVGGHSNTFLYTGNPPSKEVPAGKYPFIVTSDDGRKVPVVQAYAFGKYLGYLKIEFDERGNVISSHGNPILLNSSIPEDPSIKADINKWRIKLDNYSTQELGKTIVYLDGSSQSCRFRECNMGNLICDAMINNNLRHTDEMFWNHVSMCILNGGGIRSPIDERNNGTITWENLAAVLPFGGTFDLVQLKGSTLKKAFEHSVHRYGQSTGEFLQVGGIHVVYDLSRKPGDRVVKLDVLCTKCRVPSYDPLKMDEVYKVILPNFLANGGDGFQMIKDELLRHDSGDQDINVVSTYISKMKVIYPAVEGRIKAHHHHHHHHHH
EXPERIMENT SUMMARY: SPR as the filing names it (method of Example 2, ForteBio OCTET R2)
Method: Surface plasmon resonance (SPR) assay: Protein A sensor was used to immobilize the antibodies, with an immobilization height of about 1.5 nM. […] Affinity detection: equilibrium for 60 s, binding for 180 s, dissociation for 180 s, at a detection temperature of 25° C. Kinetic characterization analysis was performed using the ForteBio OCTET R2 system. The affinity of the humanized antibody to the antigen was detected by the surface plasmon resonance (SPR) assay method in Example 2.
ENDPOINT: Kd (nM)
Form entry: value (nM) — number only.

Request: Given humanized antibody 3D7-HM7-FC1 (Fc fusion) heavy: QRQLVESGGGLVQPGGSLRLSCAASGFLLDYYVIGWFRQAPGKEREGVSCISGSDRSTYYADSVKGRFTISRDNSKNTVYLQMGSLRAEDTAVYYCAADPSPVTVQAMCLPRFPVPYWGQGTLVTVSSEPKSSDKTHTCPPCPAPEFEGGPSVFLFPPKPKDTLMISRTPEVTCVVVDVSHEDPEVKFNWYVDGVEVHNAKTKPREEQYNSTYRVVSVLTVLHQDWLNGKEYKCKVSNKALPASIEKTISKAKGQPREPQVYTLPPSRDELTKNQVSLTCLVKGFYPSDIAVEWESNGQPENNYKTTPPVLDSDGSFFLYSKLTVDKSRWQQGNVFSCSVMHEALHNHYTQKSLSLSPGK , respond with its Kd.
Result: 1.3
